This collection of values is drawn from patent US12162819B2.

assay: Particle size and PDI of lipid nanoparticles by dynamic light scattering; assay type: physicochemical; details: lipid nanoparticle with the cationic lipid, cholesterol, DSPC, DMG-PEG2000 (50/38.5/10/1.5 mol%), luciferase mRNA, N/P 6
readout-type: Particle size dispersity (PDI)

>>> print(df.to_string())
                                   compound                    readout_type  readout_value
0  CCCCCCCCCCOC(=O)C(C)(C)CCCCCC(CCCCCC(C)(C)C(=O)OCCCCCCCCCC)OC(=O)CCN1CCCC1 [Compound 92]  Particle size dispersity (PDI)           0.05
1  CCCCCCCCCOC(=O)C(C)(C)CCCCCC(CCCCCC(C)(C)C(=O)OCCCCCCCCC)OC(=O)CC1CCN(CCO)CC1 [Compound 113]  Particle size dispersity (PDI)           0.03
2  CCCCCCCCCCSC(=O)C(C)(C)CCCCCC(CCCCCC(C)(C)C(=O)SCCCCCCCCCC)OC(=O)C1CCN(C(C)C)CC1 [Compound 105]  Particle size dispersity (PDI)           0.05
3  CCCCCCCCCOC(=O)C(C)(C)CCCCCC(CCCCCC(C)(C)C(=O)SCCCCCCCCC)OC(=O)CCCN(C)C (stereo not shown) [Compound 41]  Particle size dispersity (PDI)           0.05
4  CCCCCCCCCN(CCCCCCCCC)C(=O)C(C)(C)CCCCCC(CCCCCC(C)(C)C(=O)N(CCCCCCCCC)CCCCCCCCC)OC(=O)CCN(C)C [Compound 12]  Particle size dispersity (PDI)           0.07

(a) CCCCCCCCCCSC(=O)C(C)(C)CCCCCC(CCCCCC(C)(C)C(=O)SCCCCCCCCCC)OC(=O)C1CCN(C)CC1 [Compound 104]
(b) CCCCC/C=C\C/C=C\CCCCCCCCC(CCCCCCCC/C=C\C/C=C\CCCCC)OC(=O)CCCN(C)C [DLin-MC3-DMA, reference compound]
Ask | a or b : whose Particle size dispersity (PDI) is greater? Indicate which entry you chose by stating its label.
Reply | a

(I) CCCCCCCCCCCCNC(=O)C(C)(C)CCCCCC(CCCCCC(C)(C)C(=O)NCCCCCCCCCCCC)OC(=O)CCN(C)C [Compound 10]
(II) CCCCCCCCCOC(=O)CCCCCCC(CCCCCCC(=O)OCCCCCCCCC)OC(=O)CCCN(C)C [Compound D1, reference compound]
Ask | Please tell me which of the two, I or II , has the higher reported Particle size dispersity (PDI) value. Identify your selection by its label.
Reply | II

(P) CC(C)CCCC(C)CCOC(=O)C(C)(C)CCCCCC(CCCCCC(C)(C)C(=O)OCCC(C)CCCC(C)C)OC(=O)CCN(C)C (stereo not shown) [Compound 6]
(Q) CCCCCCCCCCNC(=O)C(C)(C)CCCCCC(CCCCCC(C)(C)C(=O)NCCCCCCCCCC)OC(=O)CN(C)C [Compound 13]
Ask | Among P and Q , which shows a numerically higher Particle size dispersity (PDI) result? Choose, then provide that item's label.
Reply | Q
(Q: 0.08, P: 0.05)

(A) CCCCCCCCCSC(=O)C(C)(C)CCCCCC(CCCCCC(C)(C)C(=O)OCC(CCCCC)CCCCCCC)OC(=O)CC1CCN(C)CC1 (stereo not shown) [Compound 112]
(B) CCCCCCCCCSC(=O)C(C)(C)CCCCCC(CCCCCC(C)(C)C(=O)SCCCCCCCCC)OC(=O)C1CCN(C(C)C)CC1 [Compound 107]
Ask | Which of these two has the smaller recorded Particle size dispersity (PDI): A or B ? Choose, then provide that item's label.
Reply | B

* * *

assay: Particle size and PDI of lipid nanoparticles by dynamic light scattering; format: physicochemical; conditions: lipid nanoparticle with the cationic lipid, cholesterol, DSPC, DMG-PEG2000 (50/38.5/10/1.5 mol%), luciferase mRNA, N/P 6
readout-type: Particle size dispersity (PDI)

In [3]: df
Out[3]:
                                   molecule                    readout_type  readout_value
0  CCCCC(CC#CCOC(=O)C(C)(C)CCCCCC(CCCCCC(C)(C)C(=O)OCC#CCC(CCCC)CCCC)OC(=O)CCCN(C)C)CCCC  Particle size dispersity (PDI)           0.06
1  CCCCCCCCCOC(=O)C(C)(C)CCCCCCC(CCCCCCC(C)(C)C(=O)OCC(CCCCC)CCCCCCC)OC(=O)CCCCN(C)C (stereo not drawn)  Particle size dispersity (PDI)           0.06
2  CCCCCCCC(CCCCCCC)COC(=O)CCC(C)(C)CCCC(CCCC(C)(C)CCC(=O)OCC(CCCCCCC)CCCCCCC)OC(=O)CCCN(C)C  Particle size dispersity (PDI)           0.06

* * *

experiment: Particle size and PDI of lipid nanoparticles by dynamic light scattering; format: physicochemical; conditions: lipid nanoparticle with the cationic lipid, cholesterol, DSPC, DMG-PEG2000 (50/38.5/10/1.5 mol%), luciferase mRNA, N/P 6
readout-type: Particle size (nm)

>>> df
                                   compound        readout_type  readout_value
0  CCCCCCCCCOC(=O)C(C)(C)CCCCCC(CCCCCC(C)(C)C(=O)OCCCCCCCCC)OC(=O)CCCN(C)C [Compound 20]  Particle size (nm)          99.61
1  CCCCCCCCCCSC(=O)C(C)(C)CCCCCC(CCCCCC(C)(C)C(=O)SCCCCCCCCCC)OC(=O)CCN(C)C [Compound 33]  Particle size (nm)         105.84
2  CCCCCCC#CCOC(=O)C(C)(C)CCCCCC(CCCCCC(C)(C)C(=O)OCCCCCCCCC)OC(=O)CCCN(C)C (stereo not shown) [Compound 42]  Particle size (nm)         152.04
3  CCCCCCCCCCCCNC(=O)C(C)(C)CCCCCC(CCCCCC(C)(C)C(=O)NCCCCCCCCCCCC)OC(=O)CCN(C)C [Compound 10]  Particle size (nm)         118.59
4  CCCCCCCCCOC(=O)C(C)(C)CCCCCC(CCCCCC(C)(C)C(=O)OCC(CCCCC)CCCCCCC)OC(=O)CC1CCN(C)CC1 (stereo not shown) [Compound 111]  Particle size (nm)         141.30

(I) CCCCCCCCCSC(=O)C(C)(C)CCCCCC(CCCCCC(C)(C)C(=O)SCCCCCCCCC)OC(=O)C1CCN(C(C)C)CC1 [Compound 107]
(II) CCCCCCCCC(CCCCCCCC)NC(=O)C(C)(C)CCCCCC(CCCCCC(C)(C)C(=O)NC(CCCCCCCC)CCCCCCCC)OC(=O)CCN(C)C [Compound 11]
Ask | Hey, which is lower on measured Particle size (nm), I or II ? // respond with label for picked entry
Reply | II
(II: 46.49 nm, I: 99.54 nm)

(a) CCCCCCCCCCSC(=O)C(C)(C)CCCCCC(CCCCCC(C)(C)C(=O)SCCCCCCCCCC)OC(=O)C1CCN(C(C)C)CC1 [Compound 105]
(b) CCCCCCCCCOC(=O)C(C)(C)CCCCCCC(CCCCCCC(C)(C)C(=O)OCC(CCCCC)CCCCCCC)OC(=O)CCCCN(C)C (stereo not shown) [Compound 126]
Ask | Exercise: compare a and b ; which one has the greater Particle size (nm)? # respond with the chosen item's label
Reply | b

(A) CCCCCCCCOC(=O)C(C)(C)CCCCCC(CCCCCC(C)(C)C(=O)OCCCCCCCC)OC(=O)C1CCN(C(C)C)CC1 [Compound 101]
(B) CCCCCCCC#CCOC(=O)C(C)(C)CCCCCC(CCCCCC(C)(C)C(=O)OCCCC(CCCCC)CCCCC)OC(=O)CCCN(C)C (stereo not shown) [Compound 115]
Ask | Just curious, which one has the larger Particle size (nm) reading, A or B ? API: response body contains the label of the selected item.
Reply | A
(A: 152.45 nm, B: 77.12 nm)

(I) CCCCCCC/C=C\COC(=O)C(C)(C)CCCCCC(CCCCCC(C)(C)C(=O)OC/C=C\CCCCCCC)OC(=O)CCCN(C)C [Compound 26]
(II) CCCCCCCCCOC(=O)C(C)(C)CCCCCC(CCCCCC(C)(C)C(=O)OCCCCCCCCC)OC(=O)C1CCN(C(C)C)CC1 [Compound 103]
Ask | Smaller Particle size (nm) value? Options are I and II To answer, give the label that identifies your chosen option.
Reply | I
(I: 96.69 nm, II: 148.67 nm)

* * *

experiment: Encapsulation efficiency of lipid nanoparticles, Quant-It RiboGreen RNA Assay; assay type: physicochemical; conditions: lipid nanoparticle with the cationic lipid, luciferase mRNA
readout-type: Encapsulation efficiency (%)

In [3]: df
Out[3]:
                                    compound                  readout_type  readout_value
 0  CCCCCC/C=C\CCOC(=O)C(C)(C)CCCCCC(CCCCCC(C)(C)C(=O)OCC/C=C\CCCCCC)OC(=O)CCCN(C)C  Encapsulation efficiency (%)          88.99
 1  CCCCCCCCCCSC(=O)C(C)(C)CCCCCC(CCCCCC(C)(C)C(=O)SCCCCCCCCCC)OC(=O)CCCCCN(C)C  Encapsulation efficiency (%)          97.52
 2  CCCCCCCC#CCOC(=O)C(C)(C)CCCCCC(CCCCCC(C)(C)C(=O)OCCCC(CCCCC)CCCCC)OC(=O)CCCN(C)C (centres unmarked)  Encapsulation efficiency (%)          91.76
 3  CCCCCCCCCOC(=O)C(C)(C)CCCCCC(CCCCCC(C)(C)C(=O)OCC#CC(CCCCCC)CCCCCC)OC(=O)CCCN(C)C (centres unmarked)  Encapsulation efficiency (%)          93.87
 4  CCCCCCCCCN(CCCCCCCCC)C(=O)C(C)(C)CCCCCC(CCCCCC(C)(C)C(=O)N(CCCCCCCCC)CCCCCCCCC)OC(=O)CCN(C)C  Encapsulation efficiency (%)          85.02
 5  CCCCCCCCCOC(=O)C(C)(C)CCCCCC(CCCCCC(C)(C)C(=O)OCCCCCCCCC)OC(=O)C1CCN(C(C)C)CC1  Encapsulation efficiency (%)          90.97
 6  CCCCCCCCCCSC(=O)C(C)(C)CCCCCC(CCCCCC(C)(C)C(=O)OCCCCCCCCC)OC(=O)CCCN(C)C (centres unmarked)  Encapsulation efficiency (%)          97.06
 7  CCCCCCCCOC(=O)C(C)(C)CCCCCC(CCCCCC(C)(C)C(=O)OCCCCCCCC)OC(=O)CCN(C)C  Encapsulation efficiency (%)          79.14
 8  CCCCCCCCCCOC(=O)C(C)(C)CCCCC(CCCCC(C)(C)C(=O)OCC(CCCCC)CCCCCCC)OC(=O)CCCN(C)C (centres unmarked)  Encapsulation efficiency (%)          92.27
 9  CCCCCCCCC(CCCCCCCC)NC(=O)C(C)(C)CCCCCC(CCCCCC(C)(C)C(=O)NC(CCCCCCCC)CCCCCCCC)OC(=O)CCN(C)C  Encapsulation efficiency (%)          95.61
10  CC(C)CCCCCCCOC(=O)CCC(C)(C)CCCC(CCCC(C)(C)CCC(=O)OCCCCCCCC(C)C)OC(=O)CCCN(C)C  Encapsulation efficiency (%)          62.35
